- assayed_target: HLA-A*02:01
- assay_comment: IEDB peptide-MHC binding, purified MHC/competitive/radioactivity; bounds were set here for any values at or beyond the usual limits of such assays
- condition: source organism: Vaccinia virus WR
Would you kindly list IC50 for each of these sequences?
Kindly provide the numeric value in nM only, without the unit symbol.

# value lookup — system HLA-A*02:01, readout IC50, item SLEATYHIII 4980

Give IC50 (HLA-A*02:01) of the following sequence: NISTILYFT 128

Give recorded IC50 with HLA-A*02:01 for the following sequence: ILAIIFLVL 131

Look up IC50 with HLA-A*02:01 for this sequence: SVDVDIYDAV 153

So what IC50 did SIINRDIIVI get with HLA-A*02:01? 826

What measured IC50 is associated with NIGCAVNTPV on HLA-A*02:01? 23

# returns recorded IC50 (system: HLA-A*02:01) for GLVRLNAFL 1.7

Provide the documented IC50 with HLA-A*02:01 as the system for SILNNPVDT 4630

Form: Entry = KIVQLPKRGV | System = HLA-A*02:01 | IC50 = ____ 2240

Which IC50 is reported with HLA-A*02:01 for this entry: TMFKIVYSL ? 9.3

Enter reported IC50 observed with HLA-A*02:01 for FITVLTSVDI 603

====

- assayed_target: HLA-A*68:02
- assay_comment: IEDB peptide-MHC binding, purified MHC/competitive/radioactivity; bounds were set here for any values at or beyond the usual limits of such assays
- condition: source organism: Vaccinia virus WR
endpoint: pIC50
The value called pIC50 is obtained by taking minus log10 of the concentration in mol/L.

Field: pIC50 (HLA-A*68:02). Entry: KVTGSYNLV 6.27

Give HLA-A*68:02 pIC50 for DISSFYWSL 7.55

What pIC50 appears in the records for this sequence with HLA-A*68:02? KLFTHDIML 6.11

Short answer please: pIC50, HLA-A*68:02, entry ETLPELNLSL 6.19

Please tell me: pIC50 of LIYDDNIDSI , system HLA-A*68:02? 6.70

Hi! What's the reported pIC50 for AVITETIPI on HLA-A*68:02? 7.22

Notebook: pull reported pIC50 for HLA-A*68:02, entry KMAVEVGSI 6.09

Requested read-out pIC50, target or system HLA-A*68:02, entry TILATLNTLI 5.83

Fill in the recorded pIC50 for this sequence, with HLA-A*68:02 as test system: YLGIFKNNDV 6.16

Under HLA-A*68:02: pIC50 value of VLIAGIILLI ? 7.48

Request body: readout pIC50, system HLA-A*68:02, query IISLFYTFAI . Return the value. 6.84

What is its pIC50 for HLA-A*68:02? Entry: ELIDVLKTRL 5.85

Requested read-out pIC50, target or system HLA-A*68:02, entry LMDSIFVSTM 6.17

// fetch HLA-A*68:02 pIC50 for FTKDGKLDDT 5.39

For the record SLVITYCLVT , what value of pIC50 is listed for HLA-A*68:02? 6.35

Hello, I am looking for reported pIC50 with HLA-A*68:02 for DINVIGLIVI . Could you help? 5.66

Under HLA-A*68:02: pIC50 value of ETVKMGAFM ? 7.09

Query pIC50 on HLA-A*68:02 for DVFRPLFDFV 6.74

What measured pIC50 is associated with IVDSMIIGHI on HLA-A*68:02? 7.28

Lab note: need pIC50 with HLA-A*68:02 for entry NLFDIPLLT , please look it up. 5.54

Query the reported pIC50 for HLA-A*68:02; item: YAVLSEYETM 5.38

Test system HLA-A*68:02; read-out pIC50; what value for TMSIYIAVA ? 6.52

Reported pIC50 for HLA-A*68:02, given SVDAMIHKT ? 6.06

pIC50 of IVPEFAKQYV on HLA-A*68:02? 8.46

Hello, I am looking for reported pIC50 with HLA-A*68:02 for QIFNIISYI . Could you help? 8.19

Lab note: need pIC50 for TIDNIVTSL on HLA-A*68:02, anyone have it? 5.73

State its pIC50 on HLA-A*68:02: NVTYNIKPV 6.42

Record lookup: for HLA-A*68:02, what pIC50 belongs to ILFILFFAYV ? 6.49

Item: IMFMLIFNV Test system: HLA-A*68:02 Read-out: pIC50 Value: ? 7.89

Under HLA-A*68:02: pIC50 value of RIASILSLET ? 6.35

Under HLA-A*68:02: pIC50 value of YVEHDPRLV ? 5.71

Short answer please: pIC50, HLA-A*68:02, entry CVKYLLDNDI 5.70

Param readout= pIC50; system= HLA-A*68:02; entry= YVIRHVDGKI ; returns value. 7.66

Given the entry FTILEYLYIM , what pIC50 was observed with HLA-A*68:02? 5.66

Lab request: please report pIC50 under test system HLA-A*68:02 for MAFILGIII 5.31

Notebook entry, HLA-A*68:02 assay: pIC50 of DLFMSHVKSV = ? 5.71

Fill in the recorded pIC50 for this sequence, with HLA-A*68:02 as test system: DISDVKVLAA 5.30

Which measured pIC50 belongs to YVGDTSMMVI , tested on HLA-A*68:02? 7.14

Test system HLA-A*68:02; read-out pIC50; what value for IAIFNNRNLA ? 5.83

Please provide the recorded pIC50 for IINSVSIILA , tested on HLA-A*68:02. 6.81

Identify the measured pIC50 of MTSTRTIILV for HLA-A*68:02. 6.76

Fill in the recorded pIC50 for this sequence, with HLA-A*68:02 as test system: VTLFIDRGSI 7.85

What value of pIC50 on HLA-A*68:02 does IAVANCVRNL have? 6.33

Please state recorded pIC50 (tested on HLA-A*68:02) of NVDIIDLLL 6.58

Under HLA-A*68:02: pIC50 value of YAGTIKESLL ? 5.72

So what pIC50 did YTKHSMLTNA get with HLA-A*68:02? 5.85

Value wanted: pIC50 (HLA-A*68:02) of entry KTANNYETI 5.88

Request body: readout pIC50, system HLA-A*68:02, query YVHEGVSYEV . Return the value. 7.85

Value wanted: pIC50 (HLA-A*68:02) of entry SVDVDIYDAV 9.60

For the record DIKYISRDEL , what value of pIC50 is listed for HLA-A*68:02? 6.49

What is its pIC50 for HLA-A*68:02? Entry: SIPISELSRL 6.37

Hi! What's the reported pIC50 for EVIGLTTHCT on HLA-A*68:02? 7.77

Kindly state the measured pIC50 obtained for IVYGRSNAIL with HLA-A*68:02. 6.19

// map VVISVIFYFI to recorded pIC50 (system: HLA-A*68:02) 6.23

Find pIC50 (HLA-A*68:02) for the entry AISYCRAFI 7.01

Quick check: pIC50 on HLA-A*68:02, item QIYLSDSDNI ? 6.18

What measured pIC50 is associated with NITTLLNETA on HLA-A*68:02? 5.76

Please tell me: pIC50 of NIVTFINDYA , system HLA-A*68:02? 7.09

Record lookup: for HLA-A*68:02, what pIC50 belongs to HTKFWISDNT ? 6.21

HLA-A*68:02 / pIC50 / SISSVLTIL : value? 7.80

# query: pIC50 | item SQFSYKELYV | system: HLA-A*68:02 6.20

Under HLA-A*68:02: pIC50 value of FISPASISSV ? 7.77

Field: pIC50 (HLA-A*68:02). Entry: YTISSESLV 8.48

What reported pIC50 corresponds to ILQMREIIT on HLA-A*68:02? 5.93

Give recorded pIC50 with HLA-A*68:02 for the following sequence: SIDHCSSFI 7.57

Missing value: pIC50, HLA-A*68:02, entry KLPTLFGRGV . Fill in? 6.29

Lab note: need pIC50 with HLA-A*68:02 for entry DVSLSAYII , please look it up. 6.23

Kindly state the measured pIC50 obtained for TAEQLSKYV with HLA-A*68:02. 5.66

Could you share what pIC50 was measured for LITLILSNKL , tested on HLA-A*68:02? 5.83

Hi! What's the reported pIC50 for HINDQKFDDV on HLA-A*68:02? 5.95

Form entry - test system: HLA-A*68:02; read-out: pIC50; sequence: IIMAINVFT 7.08

Notebook: pull reported pIC50 for HLA-A*68:02, entry TTFITVLTSV 7.82

What value of pIC50 on HLA-A*68:02 does YLRGHTESI have? 6.30

Which pIC50 is reported with HLA-A*68:02 for this entry: LIVILFIMFM ? 7.22

Missing value: pIC50, HLA-A*68:02, entry IMETIDPVYI . Fill in? 6.09

Hello, I am looking for reported pIC50 with HLA-A*68:02 for KINEMVDELV . Could you help? 5.30

Give recorded pIC50 with HLA-A*68:02 for the following sequence: MAAAKTPVI 7.80

Param readout = pIC50; param system = HLA-A*68:02; param query = TTIGTIAGGV ; response: value 9.70

Short answer please: pIC50, HLA-A*68:02, entry MVDVSMMSM 6.28

For HLA-A*68:02, provide pIC50 of GLESIEQNLT please. 5.84

Report pIC50 for FTNSQIFNI tested on HLA-A*68:02. 9.64

Given the entry PASISSVLT , what pIC50 was observed with HLA-A*68:02? 5.83

Query the reported pIC50 for HLA-A*68:02; item: AADLTQIFEV 5.36

What reported pIC50 corresponds to WVMDTLNGI on HLA-A*68:02? 9.36

Form: Entry = NASKTINAL | System = HLA-A*68:02 | pIC50 = ____ 7.28

Can you look up pIC50 on HLA-A*68:02 for DTCLLAISAV ? 6.93

Give recorded pIC50 with HLA-A*68:02 for the following sequence: LLPLTSLVIT 5.83
